experiment: Inhibition of saccharomyces cerevisiae alpha-glucosidase using PNPG as substrate preincubated for 2 mins followed by substrate addition for 15 mins by microplate reader analysis
measurement kind: IC50 (µM)

C/C(=C\O)[C@@H]1OC(=O)[C@H]2O[C@@]23[C@@]1(C)CC[C@@H]1[C@@]2(CCC(=O)[C@]13C)COC(=O)C[C@@H]2O : 102

(P) COC(=O)/C=C/c1ccc(OCC=C(C)C)c(OC)c1
(Q) COc1cc2ccc(=O)oc2cc1O
(R) C/C=C(\C)C(=O)NCCc1ccc(OCC=C(C)C)cc1
Output the entries ranked by IC50 from maximum down to minimum. Lab note: record answer as labels in requested order.
R, P, Q
(R: 195 µM, P: 98 µM, Q: 4.6 µM)
